Biological target: Grb2 SH2 (UniProt P62993)
Sequence (P62993 whole entry, looked up, the tested form may be a part): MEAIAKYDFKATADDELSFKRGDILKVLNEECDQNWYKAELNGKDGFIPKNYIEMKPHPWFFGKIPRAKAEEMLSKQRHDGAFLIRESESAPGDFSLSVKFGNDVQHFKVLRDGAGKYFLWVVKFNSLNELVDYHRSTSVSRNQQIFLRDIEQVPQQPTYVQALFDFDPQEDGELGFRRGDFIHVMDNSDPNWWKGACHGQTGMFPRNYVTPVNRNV
Test: SH2 binding enrichment of the phosphorylated peptide, bacterial display (enrichment ratio); higher = better substrate or ligand; peptides without Tyr show the background;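 further: peptide library displayed on the E. coli surface as eCPX fusions, selected cells deep-sequenced, score is each peptide's frequency after selection divided by its frequency in the input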
Field: SH2 binding enrichment. Provide a value for each of the sequences that follow.
Give bare numbers.

Some sequences with known SH2 binding enrichment results, for comparison:
{"RESIDUE_STRING": "MPPHIYAITDT [MYH9_Y151]", "SH2 binding enrichment": 0.965}
{"RESIDUE_STRING": "QLQTTYPSSDN [MAX_Y115_N114T]", "SH2 binding enrichment": 0.921}
{"RESIDUE_STRING": "ATHSGYRLNDY [CLDN14_Y233]", "SH2 binding enrichment": 0.709}
{"RESIDUE_STRING": "QTPVLYAMLDH [MPZ_Y220]", "SH2 binding enrichment": 0.837}
{"RESIDUE_STRING": "LGGSPYPGVPV [FGFR1_Y701]", "SH2 binding enrichment": 0.873}
{"RESIDUE_STRING": "LGKGSYAKVRS [TSSK2_Y23_K27R]", "SH2 binding enrichment": 1.73}
{"RESIDUE_STRING": "IKKFKYGIEEH [GJA1_Y137]", "SH2 binding enrichment": 0.644}

Moving on to the next sequence.
Reported SH2 binding enrichment for GEIQEYGAPLD [ABCC1_Y1508_S1512L] : what is it?
0.822

Hello, the source for this data is the supplement of paper PMC10065799, in case you need it.
